Kindly state IC50 for each of the entries shown.
biological target: IRE1α (Homo sapiens, UniProt O75460, D688N); construct: containing the kinase and RNase domains (KR, AA G547-L977, D688N); test: IRE1α TR-FRET competition binding assay (HTRF); conditions: His-tagged IRE1α kinase dead construct (KR, AA G547-L977, D688N); Alexa fluor 647-labeled ATP competitive probe 2 nM; read-out: IRE1α (alpha) HTRF (IC50)
Sequence (O75460 547-977 D688N): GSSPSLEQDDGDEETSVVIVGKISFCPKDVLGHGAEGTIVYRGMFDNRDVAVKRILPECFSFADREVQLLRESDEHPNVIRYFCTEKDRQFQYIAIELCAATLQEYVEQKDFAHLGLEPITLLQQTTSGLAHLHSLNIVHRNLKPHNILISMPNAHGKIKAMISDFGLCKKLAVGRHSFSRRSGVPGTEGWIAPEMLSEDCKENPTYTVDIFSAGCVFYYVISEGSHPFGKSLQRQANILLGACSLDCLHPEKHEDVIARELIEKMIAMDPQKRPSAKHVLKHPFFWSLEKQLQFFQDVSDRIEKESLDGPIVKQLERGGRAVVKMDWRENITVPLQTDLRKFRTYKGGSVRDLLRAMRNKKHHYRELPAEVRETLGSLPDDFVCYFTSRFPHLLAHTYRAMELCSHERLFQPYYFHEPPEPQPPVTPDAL
One number for each entry, in nM.

Worked set:
Molecule | Value Reported
O=S(=O)(CCC(F)(F)F)Nc1ccc(-c2ccc3nc(N[C@H]4CCCNC4)ncc3c2)c(F)c1F [Compound 1002] | 7.6
O=S(=O)(Cc1ccccc1)Nc1ccc(-c2ccc3nc(N[C@H]4CCCNC4)ncc3c2F)c(F)c1F [Compound 1012] | 15
CCC(F)(F)CS(=O)(=O)Nc1ccc(-c2ccc3nc(N[C@H]4CCCNC4)ncc3c2)c(F)c1F [Compound 1007] | 2.9

Read the next record carefully.
Look up and state reported IC50 for O=S(=O)(Cc1ccccc1)Nc1c(F)cc(-c2ccc3nc(N[C@H]4CCCNC4)ncc3c2)cc1F [Compound 1011]
0.53
